B1: TFE3 (parent)
chain: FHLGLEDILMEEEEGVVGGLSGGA

Variants of: B1
Assay: protein stability index of a GFP-peptide fusion (GPS, HEK-293T) (PSI 1-6); higher = more stable;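 also: lentivirally expressed fusions sorted by FACS into six bins by GFP to DsRed ratio, PSI derived from sequencing read proportions per bin multiplied by bin number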
Details: c terminus: a fixed tail appended
// NOT MET strictly below 4 in protein stability index; MET otherwise

{"columns": ["Variant Description", "Category"],
 "data": [
  ["D7F", "NOT MET"],
  ["G22N", "NOT MET"],
  ["E6L", "NOT MET"],
  ["F1M", "MET"],
  ["G15D", "MET"],
  ["G18R", "NOT MET"],
  ["D7A", "NOT MET"],
  ["V16Y", "NOT MET"],
  ["G18F", "NOT MET"],
  ["E12K", "NOT MET"],
  ["A24W", "NOT MET"],
  ["V17K", "NOT MET"],
  ["V17H", "NOT MET"],
  ["L9F", "NOT MET"],
  ["A24S", "NOT MET"],
  ["E6C", "NOT MET"],
  ["G18S", "NOT MET"],
  ["D7H", "NOT MET"],
  ["E6Y", "NOT MET"],
  ["G23F", "NOT MET"],
  ["A24P", "NOT MET"],
  ["L9T", "MET"],
  ["S21K", "NOT MET"],
  ["E14I", "NOT MET"],
  ["F1Y", "MET"],
  ["H2K", "MET"],
  ["G15E", "MET"],
  ["G22H", "NOT MET"],
  ["L3Q", "MET"],
  ["E6W", "NOT MET"],
  ["L9K", "MET"],
  ["D7E", "NOT MET"],
  ["A24N", "NOT MET"],
  ["I8G", "MET"],
  ["E11P", "NOT MET"],
  ["L20D", "MET"],
  ["E14V", "NOT MET"],
  ["L9N", "MET"],
  ["E6S", "NOT MET"],
  ["L9Q", "MET"],
  ["E14A", "NOT MET"],
  ["L3E", "MET"],
  ["E14C", "NOT MET"],
  ["L5F", "NOT MET"],
  ["E13Y", "NOT MET"],
  ["G15L", "NOT MET"],
  ["E13Q", "NOT MET"],
  ["E11N", "NOT MET"],
  ["L20M", "NOT MET"],
  ["G18M", "NOT MET"],
  ["E14N", "NOT MET"],
  ["E13M", "NOT MET"],
  ["M10V", "NOT MET"],
  ["D7N", "NOT MET"],
  ["E11Q", "NOT MET"],
  ["E14H", "NOT MET"],
  ["G18L", "NOT MET"],
  ["G22I", "NOT MET"],
  ["L3G", "NOT MET"],
  ["V16R", "NOT MET"],
  ["G4C", "NOT MET"],
  ["I8F", "NOT MET"],
  ["G19C", "NOT MET"],
  ["G19P", "NOT MET"],
  ["G19V", "NOT MET"],
  ["E12I", "NOT MET"],
  ["E6N", "NOT MET"],
  ["V16L", "NOT MET"]
]}
